test system: 4T1 (mouse mammary tumor); test: Cytotoxic activity, neutral red assay, 4T1; assay type: cell-based; conditions: mean ± SEM, listed as compound 1
Experimental Readout: IC50

// query IC50 value for entry O=C1N[C@@H](Cc2ccc(O)cc2)C(=O)N2CCC[C@@H]12 [Compound 1, cyclo (L-Pro-L-Tyr)]
< 88 µM

====

tested on: MCF-7 (human mammary adenocarcinoma); experiment: Cytotoxic activity, neutral red assay, MCF-7; assay type: cell-based; settings: mean ± SEM, listed as compound 2
Experimental Readout: IC50

// query IC50 value for entry O=C1N[C@@H](Cc2ccc(O)cc2)C(=O)N[C@H]1Cc1ccccc1 [Compound 2, cyclo (L-Tyr-L-Phe)]
> 250 µM

====

system: MCF-7 (human mammary adenocarcinoma); assay: Cytotoxic activity, neutral red assay, MCF-7; type: cell-based; details: mean ± SEM, listed as compound 1
Experimental Readout: IC50

// query IC50 value for entry O=C1N[C@@H](Cc2ccc(O)cc2)C(=O)N2CCC[C@@H]12
< 88 µM

====

tested on: MCA 38 (murine colon); assay: Cytotoxic activity, neutral red assay, MCA 38; format: cell-based; details: mean ± SEM, listed as compound 1, read-out: Cytotoxic Activity of Fractions IC50
Experimental Readout: IC50

Which measured IC50 belongs to O=C1N[C@@H](Cc2ccc(O)cc2)C(=O)N2CCC[C@@H]12 , tested on MCA 38 (murine colon)?
< 40 µM

====

test system: MCF-7 (human mammary adenocarcinoma); test: Cytotoxic activity, neutral red assay, MCF-7; assay type: cell-based; conditions: mean ± SEM
This listing pairs compounds with measured pIC50.
The scale used: pIC50 is minus the common logarithm of the concentration in molar units.

# Smiles Repr, pIC50
measured = [
    ("O=C1N[C@@H](Cc2ccc(O)cc2)C(=O)N[C@H]1Cc1ccccc1", 3.05),
]

Now take the following compound into account.
// query pIC50 value for entry O=C1N[C@@H](Cc2ccc(O)cc2)C(=O)N2CCC[C@@H]12
4.06

====

test system: B16 (murine melanoma); assay: Cytotoxic activity, neutral red assay, B16; type: cell-based; settings: mean ± SEM, read-out: Cytotoxic Activity of Fractions IC50
Experimental Readout: IC50 (µM)
Enter your answer as a number in µM; do not include the unit.

Which measured IC50 belongs to O=C1N[C@@H](Cc2ccc(O)cc2)C(=O)N2CCC[C@@H]12 , tested on B16 (murine melanoma)?
80.9

====

tested on: 3LL (lung cancer); test: Cytotoxic activity, neutral red assay, 3LL; assay type: cell-based; details: mean ± SEM, listed as compound 1, read-out: Cytotoxic Activity of Fractions IC50
Experimental Readout: IC50

Which measured IC50 belongs to O=C1N[C@@H](Cc2ccc(O)cc2)C(=O)N2CCC[C@@H]12 , tested on 3LL (lung cancer)?
< 51.7 µM

====

System: 4T1 H17 (murine breast cancer, high ALDH expression)
Experiment: Cytotoxic activity, neutral red assay, 4T1 H17
Format: cell-based
Settings: mean ± SEM, read-out: Cytotoxic Activity of Fractions IC50
Description: The isolated compounds were resuspended in dimethyl sulfoxide (DMSO) to a final concentration of 25 mg/mL (stock solution), subsequent dilutions between 250 and 31 μg/mL were used for cytotoxicity assays. […] When cultures reached a confluence of 80%, cells were passaged and counted in a Neubauer chamber. […] The percentage of viability was calculated as absorbance of the vehicle/absorbance of the treatment per 100. […] The selectivity index was calculated using the formula: IC50 Fibroblasts/IC50 tumor cell. […]
Experimental Readout: IC50
Please state the value followed by its unit.

Which measured IC50 belongs to O=C1N[C@@H](Cc2ccc(O)cc2)C(=O)N2CCC[C@@H]12 , tested on 4T1 H17 (murine breast cancer, high ALDH expression)?
40.4 µM
